Assay: small-molecule microarray binders of probe aNog, primary screen, biochemical, biotinylated probe, 635/667 nm fluorescence (AID 1115);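 note: probe is biotinylated aNog protein used at 0.15 µg/mL for 1 h at 4 C; z-score combines 667 nm fluorescence of each spot with its signal to noise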
Settings: higher = more signal
Measured property: composite z-score

{"Molecule": "C#C[C@H](O[Si](C#Cc1ccccc1)(C(C)C)C(C)C)c1ccccc1", "Measured property": "composite z-score", "Meas value": -0.333}
{"Molecule": "C=C(/C(=C/C[C@@H](OC(=O)c1ccncc1)c1ccc(CO)o1)c1cnc2ccccc2c1)C(C)C", "Measured property": "composite z-score", "Meas value": 0.221}
{"Molecule": "COc1ccc([C@H]2C[C@H]3C(Br)=C[C@]2(OC)C(=O)[C@]32CO2)cc1", "Measured property": "composite z-score", "Meas value": -0.176}
{"Molecule": "COc1ccc([Si](C)(C)[C@H]2[C@H](CC(=O)N3Cc4ccccc4C[C@H]3CO)O[C@@]3(C(=O)N(Cc4cccc(N5CCOC5=O)c4)c4ccccc43)[C@@H]2C)cc1", "Measured property": "composite z-score", "Meas value": 0.232}
{"Molecule": "Cc1ccc(N2C(=O)c3ccccc3[C@@H](C(=O)NCc3ccccc3)[C@@H]2c2ccc(CO)cc2)nc1", "Measured property": "composite z-score", "Meas value": -0.361}
{"Molecule": "COCCCNC(=O)[C@@H]1c2ccccc2C(=O)N(CC23CC4CC(CC(C4)C2)C3)[C@H]1c1ccc(CO)cc1", "Measured property": "composite z-score", "Meas value": 0.0051}
{"Molecule": "CO[C@@H]1COC(=O)CC=C[C@@H](C)[C@H](OC)COC(=O)CC=C[C@H]1C", "Measured property": "composite z-score", "Meas value": 0.563}
{"Molecule": "CC(C)[Si](OCCCNS(=O)(=O)c1ccc(Br)cc1)(C(C)C)C(C)C", "Measured property": "composite z-score", "Meas value": 0.0379}
{"Molecule": "CO[C@@H]1COC(=O)[C@@H]2CCCN2C(=O)CC=C[C@@H](C)[C@H](OC)COC(=O)[C@@H]2CCCN2C(=O)CC=C[C@H]1C", "Measured property": "composite z-score", "Meas value": -0.201}
{"Molecule": "CC1CC/C=C\\[C@H]2OC34C=CCN(Cn5nnc6ccccc65)C(=O)[C@H]3N(C(C)CO)C(=O)[C@@H]4C2C(=O)O1 (stereo not given in full)", "Measured property": "composite z-score", "Meas value": 0.34}
{"Molecule": "COCCOC(=O)N1C(=O)[C@@]2(c3cc(C#CC4=CCCCC4)ccc31)[C@H](C(=O)NC[C@H](O)c1ccccc1)[C@H]1C(=O)O[C@H](c3ccccc3)[C@H](c3ccccc3)N1[C@@H]2c1ccc(OCCO)cc1", "Measured property": "composite z-score", "Meas value": 0.165}
{"Molecule": "O=C1O[C@@H](c2ccccc2)[C@@H](c2ccccc2)N2[C@@H](c3ccccc3OCCO)[C@]3(C(=O)Nc4ccc(C#CC5=CCCCC5)cc43)[C@@H](C(=O)O)[C@H]12", "Measured property": "composite z-score", "Meas value": 0.0014}
{"Molecule": "C=CCc1cccc([C@H]2N[C@H](C(=O)O)CC[C@@H]2C)c1", "Measured property": "composite z-score", "Meas value": -0.539}
{"Molecule": "COc1cccc([C@@H]2[C@@H](C)CC[C@H]3C(=O)N(C)[C@@H](C(C)C)C(=O)N23)c1", "Measured property": "composite z-score", "Meas value": -0.141}
{"Molecule": "CCCNC(=O)[C@@H]1c2ccccc2C(=O)N(C2CCCCC2)[C@H]1c1ccc(CO)cc1", "Measured property": "composite z-score", "Meas value": -0.278}

Cited source for all entries: PubChem BioAssay
